- TESTED_TARGET: ERα (Homo sapiens (Human))
- Sequence (P03372 whole entry): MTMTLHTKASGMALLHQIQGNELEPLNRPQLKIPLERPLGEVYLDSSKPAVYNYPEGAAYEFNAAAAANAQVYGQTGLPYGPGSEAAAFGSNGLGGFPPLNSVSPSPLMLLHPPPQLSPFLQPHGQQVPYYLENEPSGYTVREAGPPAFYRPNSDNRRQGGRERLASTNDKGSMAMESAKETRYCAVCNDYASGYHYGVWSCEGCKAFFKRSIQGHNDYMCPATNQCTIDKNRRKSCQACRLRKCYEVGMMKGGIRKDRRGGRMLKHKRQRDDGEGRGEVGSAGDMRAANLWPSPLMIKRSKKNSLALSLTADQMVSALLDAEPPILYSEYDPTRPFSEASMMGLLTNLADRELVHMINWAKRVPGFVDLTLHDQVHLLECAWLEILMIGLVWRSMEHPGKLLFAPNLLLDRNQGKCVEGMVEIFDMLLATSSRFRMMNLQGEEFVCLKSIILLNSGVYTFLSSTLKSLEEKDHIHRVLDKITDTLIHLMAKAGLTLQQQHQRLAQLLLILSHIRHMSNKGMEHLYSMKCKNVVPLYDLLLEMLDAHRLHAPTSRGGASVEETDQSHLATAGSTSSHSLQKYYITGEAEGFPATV
- EXPERIMENT_DESCRIPTION: Degradation effect on ERα in MCF-7 cells (ERα Duoset ELISA)
- Format: cell-based
- TEST_SETTINGS: MCF-7 cells; read-out: IC50 value of the degradation effect on ERα
Labelling field: enter TRUE if recorded DC50 is less than 5 nM. Enter FALSE if it equals or exceeds that cut-off.

{"COMPOUND": "CNC(=O)COc1ccc2c(c1)CC(C)N(CC(C)(C)F)C2c1c(F)cc(/C=C/C(=O)O)cc1F (centres unmarked)", "TESTED_TARGET": "ERα (Homo sapiens (Human))", "ASSIGNED_LABEL": "TRUE"}
{"COMPOUND": "CC1Cc2c(ccc(-c3cnn(C)c3)c2F)C(c2c(F)cc(/C=C/C(=O)O)cc2F)N1CC(C)(C)F (centres unmarked)", "TESTED_TARGET": "ERα (Homo sapiens (Human))", "ASSIGNED_LABEL": "TRUE"}
{"COMPOUND": "C[C@@H]1Cc2cc(-c3ccc4ncccc4c3)ccc2[C@@H](c2c(F)cc(/C=C/C(=O)O)cc2F)N1CC(C)(C)F", "TESTED_TARGET": "ERα (Homo sapiens (Human))", "ASSIGNED_LABEL": "TRUE"}
{"COMPOUND": "Cc1ncc(-c2ccc3c(c2)CC(C)N(CC(C)(C)F)C3c2c(F)cc(/C=C/C(=O)O)cc2F)o1 (centres unmarked)", "TESTED_TARGET": "ERα (Homo sapiens (Human))", "ASSIGNED_LABEL": "FALSE"}
{"COMPOUND": "CC1Cc2c(oc3ccc(-c4cnn(C)c4)cc23)C(c2c(F)cc(/C=C/C(=O)O)cc2F)N1CC(C)(C)F (centres unmarked)", "TESTED_TARGET": "ERα (Homo sapiens (Human))", "ASSIGNED_LABEL": "TRUE"}
{"COMPOUND": "CC1Cc2cc(-c3ccc4[nH]ncc4c3)ccc2C(c2c(F)cc(/C=C/C(=O)O)cc2F)N1CC(C)(C)F (centres unmarked)", "TESTED_TARGET": "ERα (Homo sapiens (Human))", "ASSIGNED_LABEL": "FALSE"}
{"COMPOUND": "CC1Cc2cc(-c3ccc(N4CCOCC4)cc3)ccc2C(c2c(F)cc(/C=C/C(=O)O)cc2F)N1CC(C)(C)F (centres unmarked)", "TESTED_TARGET": "ERα (Homo sapiens (Human))", "ASSIGNED_LABEL": "FALSE"}
{"COMPOUND": "C[C@@H]1Cc2c(ccc3[nH]ncc23)[C@@H](c2c(F)cc(/C=C/C(=O)O)cc2F)N1CC(C)(C)F", "TESTED_TARGET": "ERα (Homo sapiens (Human))", "ASSIGNED_LABEL": "TRUE"}
{"COMPOUND": "CC1Cc2cc(-c3cnn(C)c3)c(F)cc2C(c2c(F)cc(/C=C/C(=O)O)cc2F)N1CC(C)(C)F (centres unmarked)", "TESTED_TARGET": "ERα (Homo sapiens (Human))", "ASSIGNED_LABEL": "TRUE"}
{"COMPOUND": "CC1Cc2cc3[nH]ncc3cc2C(c2c(F)cc(/C=C/C(=O)O)cc2F)N1CC(C)(C)F (centres unmarked)", "TESTED_TARGET": "ERα (Homo sapiens (Human))", "ASSIGNED_LABEL": "TRUE"}
{"COMPOUND": "C[C@@H]1Cc2cc3c(cc2[C@@H](c2c(F)cc(/C=C/C(=O)O)cc2F)N1CC(C)(C)F)OCO3", "TESTED_TARGET": "ERα (Homo sapiens (Human))", "ASSIGNED_LABEL": "TRUE"}
{"COMPOUND": "CC1Cc2cc(N3CCOCC3)ccc2C(c2c(F)cc(/C=C/C(=O)O)cc2F)N1CC(C)(C)F (centres unmarked)", "TESTED_TARGET": "ERα (Homo sapiens (Human))", "ASSIGNED_LABEL": "TRUE"}
{"COMPOUND": "CC1Cc2cc(-c3cnn(C(F)F)c3)ccc2C(c2c(F)cc(/C=C/C(=O)O)cc2F)N1CC(C)(C)F (centres unmarked)", "TESTED_TARGET": "ERα (Homo sapiens (Human))", "ASSIGNED_LABEL": "FALSE"}
{"COMPOUND": "CC1Cc2c(ccc3[nH]ncc23)C(c2c(F)cc(/C=C/C(=O)O)cc2F)N1CC(C)(C)F (centres unmarked)", "TESTED_TARGET": "ERα (Homo sapiens (Human))", "ASSIGNED_LABEL": "TRUE"}
{"COMPOUND": "CC1Cc2sc3ccccc3c2C(c2c(F)cc(/C=C/C(=O)O)cc2F)N1CC(C)(C)F (centres unmarked)", "TESTED_TARGET": "ERα (Homo sapiens (Human))", "ASSIGNED_LABEL": "TRUE"}
{"COMPOUND": "CCCn1cc(-c2ccc3c(c2)CC(C)N(CC(C)(C)F)C3c2c(F)cc(/C=C/C(=O)O)cc2F)cn1 (centres unmarked)", "TESTED_TARGET": "ERα (Homo sapiens (Human))", "ASSIGNED_LABEL": "TRUE"}
{"COMPOUND": "C[C@@H]1Cc2cc(-c3cnn(C)c3)ccc2[C@@H](c2c(F)cc(/C=C/C(=O)O)cc2F)N1CC(C)(C)F", "TESTED_TARGET": "ERα (Homo sapiens (Human))", "ASSIGNED_LABEL": "TRUE"}
{"COMPOUND": "CC1Cc2cc(-c3cnn(CCF)c3)ccc2C(c2c(F)cc(/C=C/C(=O)O)cc2F)N1CC(C)(C)F (centres unmarked)", "TESTED_TARGET": "ERα (Homo sapiens (Human))", "ASSIGNED_LABEL": "FALSE"}
{"COMPOUND": "CC1Cc2cc3c(cc2C(c2c(F)cc(/C=C/C(=O)O)cc2F)N1CC(C)(C)F)OCCO3 (centres unmarked)", "TESTED_TARGET": "ERα (Homo sapiens (Human))", "ASSIGNED_LABEL": "TRUE"}
{"COMPOUND": "CC1Cc2c(oc3cc(F)ccc23)C(c2c(F)cc(/C=C/C(=O)O)cc2F)N1CC(C)(C)F (centres unmarked)", "TESTED_TARGET": "ERα (Homo sapiens (Human))", "ASSIGNED_LABEL": "FALSE"}
{"COMPOUND": "CC1Cc2c(oc3ccc(-c4cn[nH]c4)cc23)C(c2c(F)cc(/C=C/C(=O)O)cc2F)N1CC(C)(C)F (centres unmarked)", "TESTED_TARGET": "ERα (Homo sapiens (Human))", "ASSIGNED_LABEL": "TRUE"}
{"COMPOUND": "CC1Cc2cc(-c3ccccc3)ccc2C(c2c(F)cc(/C=C/C(=O)O)cc2F)N1CC(C)(C)F (centres unmarked)", "TESTED_TARGET": "ERα (Homo sapiens (Human))", "ASSIGNED_LABEL": "FALSE"}
{"COMPOUND": "CCn1cc(-c2ccc3c(c2F)CC(C)N(CC(C)(C)F)C3c2c(F)cc(/C=C/C(=O)O)cc2F)cn1 (centres unmarked)", "TESTED_TARGET": "ERα (Homo sapiens (Human))", "ASSIGNED_LABEL": "TRUE"}
{"COMPOUND": "CCn1cc(-c2ccc3oc4c(c3c2)C[C@@H](C)N(CC(C)(C)F)[C@@H]4c2c(F)cc(/C=C/C(=O)O)cc2F)cn1", "TESTED_TARGET": "ERα (Homo sapiens (Human))", "ASSIGNED_LABEL": "FALSE"}
{"COMPOUND": "CC1Cc2cc(-c3cnn(C)c3)ccc2C(c2c(F)cc(/C=C/C(=O)O)cc2F)N1CC(C)(C)F (centres unmarked)", "TESTED_TARGET": "ERα (Homo sapiens (Human))", "ASSIGNED_LABEL": "TRUE"}
{"COMPOUND": "C[C@@H]1Cc2c(oc3cccc(F)c23)[C@@H](c2c(F)cc(/C=C/C(=O)O)cc2F)N1CC(C)(C)F", "TESTED_TARGET": "ERα (Homo sapiens (Human))", "ASSIGNED_LABEL": "TRUE"}
{"COMPOUND": "C[C@@H]1Cc2cc(-c3cnn(C(F)F)c3)ccc2[C@@H](c2c(F)cc(/C=C/C(=O)O)cc2F)N1CC(C)(C)F", "TESTED_TARGET": "ERα (Homo sapiens (Human))", "ASSIGNED_LABEL": "TRUE"}
{"COMPOUND": "CC1Cc2c(oc3cccc(F)c23)C(c2c(F)cc(/C=C/C(=O)O)cc2F)N1CC(C)(C)F (centres unmarked)", "TESTED_TARGET": "ERα (Homo sapiens (Human))", "ASSIGNED_LABEL": "TRUE"}
{"COMPOUND": "CC1Cc2cc3ocnc3cc2C(c2c(F)cc(/C=C/C(=O)O)cc2F)N1CC(C)(C)F (centres unmarked)", "TESTED_TARGET": "ERα (Homo sapiens (Human))", "ASSIGNED_LABEL": "TRUE"}
